Entry source: patent US9561228B2

System: HT-29 cells (colorectal adenocarcinoma)
Assay: Inhibition of cancer cell proliferation, HT-29 (CellTiterGlo, 72 hours)
Type: cell-based
Conditions: Homo sapiens
measured property: GI50

As a guide, the following entries are already answered.
• C=CC(=O)Nc1cc(C)ccc1Nc1nc(Nc2cc(C(C)=O)ccc2C)ncc1Cl = 101 to 500 nM
• C=CC(=O)Nc1ccccc1Nc1nc(Nc2ccc(NS(C)(=O)=O)cc2OC)ncc1Cl = 501 to 999 nM
• C=CC(=O)Nc1ccccc1Nc1nc(N[C@H]2CCC[C@@H](C(N)=O)C2)ncc1Cl = < 100 nM
• C=CC(=O)Nc1ccccc1Nc1nc(N[C@H]2CCCN(C(C)=O)C2)ncc1C(F)(F)F = < 100 nM

May I ask what GI50 has been recorded for `C=CC(=O)Nc1ccccc1Nc1nc(Nc2cc(OC)nc(OCCOC)c2)ncc1C(F)(F)F` ?
< 100 nM

Any idea what GI50 was measured for `C=CC(=O)Nc1ccccc1Nc1nc(Nc2ccc(F)cc2C)ncc1Cl` ?
501 to 999 nM

Record request: GI50 value, item C=CC(=O)Nc1ccccc1Nc1nc(N[C@@H]2CCC[C@H](C(=O)NOCCO)C2)ncc1Cl (racemic)
< 100 nM

What measured GI50 goes with `NC(=O)c1ccccc1Nc1nc(N[C@H]2CCCN(C(=O)CO)C2)ncc1C(F)(F)F` ?
101 to 500 nM

Tell me the measured GI50 of `C=CC(=O)Nc1ccccc1Nc1nc(Nc2cc(OC)nc(N3CCCC3)c2)ncc1C(F)(F)F` , please.
< 100 nM

----------
Tested on: HT-29 cells (colorectal adenocarcinoma)
Assay: Inhibition of cancer cell proliferation, HT-29 (CellTiterGlo, 72 hours)
Assay type: cell-based
Settings: Homo sapiens
Measured GI50 by item

Query the reported GI50 for HT-29 cells (colorectal adenocarcinoma); item: CC(=O)N1CCC[C@H](Nc2ncc(C(F)(F)F)c(N[C@H]3[C@@H](C(N)=O)[C@@H]4C=C[C@H]3C4)n2)C1 [Compound I-308]
101 to 500 nM

Field: GI50 (HT-29 cells (colorectal adenocarcinoma)). Entry: C=CC(=O)N(C)c1ccccc1Nc1nc(N[C@@H]2CCC[C@H](C(N)=O)C2)ncc1Cl (racemic) [Compound I-105]
501 to 999 nM

Report GI50 for C=CC(=O)Nc1cc(CCC(N)=O)ccc1Nc1nc(Nc2cc(OC)ncc2C)ncc1C(F)(F)F [Compound I-400] tested on HT-29 cells (colorectal adenocarcinoma).
101 to 500 nM

Under HT-29 cells (colorectal adenocarcinoma): GI50 value of C=CC(=O)Nc1cc(C)ccc1Nc1nc(Nc2nc(OC)ncc2C#N)ncc1C(F)(F)F [Compound I-346] ?
101 to 500 nM

Record C=CC(=O)Nc1ccccc1Nc1nc(NC2CCN(S(C)(=O)=O)CC2)ncc1C(F)(F)F [Compound I-13] : what is its GI50 with HT-29 cells (colorectal adenocarcinoma)?
101 to 500 nM

Which GI50 is reported with HT-29 cells (colorectal adenocarcinoma) for this entry: C=CC(=O)Nc1ccccc1Nc1nc(N[C@H]2CCCN(C(C)=O)C2)ncc1Cl [Compound I-115] ?
< 100 nM

Report GI50 for C=CC(=O)Nc1cc(CN2CCN(S(C)(=O)=O)CC2)ccc1Nc1nc(Nc2cc(OC)ncc2C)ncc1C(F)(F)F [Compound I-384] tested on HT-29 cells (colorectal adenocarcinoma).
< 100 nM
